// provenance: patent US10098889B2

- assayInfo: High temperature test (stability study)
- Format: physicochemical
- setupConditions: High temperature, 60° C., 10 days

{"smilesStructure": "COC(=O)C1=C(CN2CCOC[C@H]2C(=O)O)N=C(c2nccs2)N[C@H]1c1ccc(F)cc1Cl.O=C(O)C(O)C(O)C(=O)O", "Appearance": "yellow"}
{"smilesStructure": "COC(=O)C1=C(CN2CCOC[C@H]2C(=O)O)N=C(c2nccs2)N[C@H]1c1ccc(F)cc1Cl.Cl", "Appearance": "yellow"}
{"smilesStructure": "Br.COC(=O)C1=C(CN2CCOC[C@H]2C(=O)O)N=C(c2nccs2)N[C@H]1c1ccc(F)cc1Cl", "Appearance": "yellow"}
